# System: Replicative DNA helicase DnaB (Mycobacterium tuberculosis, UniProt P9WMR3)
# Test Protocol: DnaB intein splicing inhibitors, dose response, biochemical, cell-free fluorescence (AID 449749)
# Assay type: functional
The source made the active and inactive calls.
Entry note: the call must match one of t = active, f = inactive

Example cases with answers are listed next.
>  <Molecule>
Cc1ccc(C(=O)OCn2ncc(Cl)c(Cl)c2=O)cc1

>  <Label Class>
t

$$$$
>  <Molecule>
COc1ccc(OC)c(NC(=O)Nc2ccc(O)c3ccccc23)c1

>  <Label Class>
t

$$$$
>  <Molecule>
Cc1[nH]c2ccccc2c1C(C#N)(C#N)C1C(=O)c2ccccc2C1=O

>  <Label Class>
f

$$$$
>  <Molecule>
O=C(CCl)Nc1cc(S(=O)(=O)N2CCCCCC2)ccc1Cl

>  <Label Class>
t

$$$$
>  <Molecule>
COc1cc(/C=C2\C(=O)N(c3ccc(NC(C)=O)cc3)N=C2c2ccccc2)ccc1O

>  <Label Class>
f

$$$$

Query block: Recorded call for CC(=O)N(C1CC(C)C(C#N)(C#N)C1(C#N)C#N)N(C)C (stereo not drawn) ?
Result block: t

Query block: Field: outcome | Entry: CCOC(=O)c1nn(-c2ccc(OC)cc2)c(=O)c2c(N)scc12
Result block: t

Query block: Assay outcome for C/C(CC(=O)Nc1cc(C)ccn1)=N\NC(=O)c1cccc(C)c1 : what was it?
Result block: t

###

# System: Long-chain-fatty-acid--AMP ligase FadD28 (Mycobacterium tuberculosis, UniProt P9WQ59)
# Sequence (P9WQ59 whole entry): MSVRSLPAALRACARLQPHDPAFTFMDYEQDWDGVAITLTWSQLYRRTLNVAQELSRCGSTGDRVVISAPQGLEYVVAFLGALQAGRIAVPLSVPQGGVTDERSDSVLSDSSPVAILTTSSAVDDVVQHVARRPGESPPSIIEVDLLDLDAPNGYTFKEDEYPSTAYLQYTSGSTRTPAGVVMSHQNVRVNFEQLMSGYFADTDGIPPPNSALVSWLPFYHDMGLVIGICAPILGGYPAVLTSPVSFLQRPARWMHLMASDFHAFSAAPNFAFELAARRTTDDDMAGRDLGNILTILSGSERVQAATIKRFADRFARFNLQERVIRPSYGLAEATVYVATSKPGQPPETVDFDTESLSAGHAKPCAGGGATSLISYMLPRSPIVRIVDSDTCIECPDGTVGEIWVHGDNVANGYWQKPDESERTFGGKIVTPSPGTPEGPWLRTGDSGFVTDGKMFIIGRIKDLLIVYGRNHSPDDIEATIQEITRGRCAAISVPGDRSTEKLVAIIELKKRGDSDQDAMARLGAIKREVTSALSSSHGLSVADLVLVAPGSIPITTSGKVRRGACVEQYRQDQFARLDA
# Test Protocol: Fluorescence polarization aasay to screen for inhibitors that compete for the binding of FadD28 to a bisubstrate Measured in Biochemical System Using Plate Reader - 2147-01_Inhibitor_Dose_CherryPick_Activity.
# Assay type: functional, Mycobacterium tuberculosis H37Rv
Activity calls are given as the source filed them.
The categories you may choose from are y for active, n for inactive

Here are 3 compounds together with their reported answers.
>  <Compound>
O=C(O)c1cc(O)c2c(c1)[C@@H]([C@H]1c3cc(C(=O)O)cc(O)c3C(=O)c3c(O[C@@H]4O[C@H](CO)[C@@H](O)[C@H](O)[C@H]4O)cccc31)c1cccc(OC3O[C@H](CO)[C@@H](O)[C@H](O)[C@H]3O)c1C2=O (some centres undefined)

>  <Label Class>
n

$$$$
>  <Compound>
Sc1nnc(-c2cc3c(s2)-c2ccccc2CC3)o1

>  <Label Class>
y

$$$$
>  <Compound>
O=C(O)c1ccccc1NC(=O)c1ccccc1Nc1ccccc1

>  <Label Class>
n

$$$$

Now consider the entry below.
Query block: Hi team, can someone confirm the assay call for Cc1ccc(S(=O)(=O)N2[C@@H](c3cccc(Cl)c3)C(C(=O)O)=CC[C@H]2c2cccc(Cl)c2)cc1 ?
Result block: y

###

# System: SUMO-activating enzyme (Homo sapiens, UniProt Q9UBT2)
# Sequence (Q9UBE0 whole entry): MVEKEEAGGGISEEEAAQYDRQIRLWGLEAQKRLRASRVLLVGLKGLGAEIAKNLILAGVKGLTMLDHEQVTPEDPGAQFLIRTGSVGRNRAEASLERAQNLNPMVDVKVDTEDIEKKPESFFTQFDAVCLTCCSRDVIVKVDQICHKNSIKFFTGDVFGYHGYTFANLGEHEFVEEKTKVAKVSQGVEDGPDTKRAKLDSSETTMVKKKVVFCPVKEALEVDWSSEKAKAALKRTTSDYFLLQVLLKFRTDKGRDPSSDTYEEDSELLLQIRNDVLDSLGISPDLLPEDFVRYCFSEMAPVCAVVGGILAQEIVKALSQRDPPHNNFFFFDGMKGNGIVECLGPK
# Sequence (Q9UBT2 whole entry): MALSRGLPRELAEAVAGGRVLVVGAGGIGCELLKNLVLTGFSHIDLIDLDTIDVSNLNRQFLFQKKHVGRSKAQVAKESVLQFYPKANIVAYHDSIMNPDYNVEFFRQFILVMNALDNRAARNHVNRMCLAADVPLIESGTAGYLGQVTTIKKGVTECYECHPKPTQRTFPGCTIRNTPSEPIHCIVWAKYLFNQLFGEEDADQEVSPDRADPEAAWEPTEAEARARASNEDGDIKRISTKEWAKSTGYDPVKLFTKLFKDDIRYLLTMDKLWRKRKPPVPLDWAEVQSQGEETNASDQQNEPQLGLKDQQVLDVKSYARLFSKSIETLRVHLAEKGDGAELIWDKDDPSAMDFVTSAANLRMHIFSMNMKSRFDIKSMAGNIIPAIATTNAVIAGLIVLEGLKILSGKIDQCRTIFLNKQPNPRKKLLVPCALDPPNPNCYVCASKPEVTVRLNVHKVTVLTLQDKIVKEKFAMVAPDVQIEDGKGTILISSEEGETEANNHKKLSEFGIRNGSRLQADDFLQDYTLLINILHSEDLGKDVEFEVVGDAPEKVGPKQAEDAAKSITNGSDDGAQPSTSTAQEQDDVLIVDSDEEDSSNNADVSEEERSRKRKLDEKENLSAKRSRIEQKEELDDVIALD
# Test Protocol: blockers of UBC9-mediated SUMO conjugation – biochemical, AlphaScreen, SUMOylation inhibitor project, confirmation (AID 2018)
# Type: functional
The source made the active and inactive calls.
Test Readout: IC50

Query block: What value of IC50 on SUMO-activating enzyme (Homo sapiens, UniProt Q9UBT2) does O=C(O)c1cccc2c1NC(c1cccc([N+](=O)[O-])c1)C1CC(Sc3ccccc3[N+](=O)[O-])C(Cl)C21 (centres undefined) have?
Result block: 2.43 µM (active)

Query block: So what IC50 did CCOC(=O)C1=C(C)N=c2s/c(=C\c3ccc(OCC(=O)O)cc3)c(=O)n2C1c1ccc(OC(C)C)cc1 (centres undefined) get with SUMO-activating enzyme (Homo sapiens, UniProt Q9UBT2)?
Result block: 10.1 µM (active)

Query block: Record lookup: for SUMO-activating enzyme (Homo sapiens, UniProt Q9UBT2), what IC50 belongs to Cc1ccc(NC(=O)Cn2c(=O)oc3cc(S(=O)(=O)N4CCC(C)CC4)ccc32)cc1C ?
Result block: 24.4 µM (active)

Query block: Entry O=C(O)CC(C(=O)O)N1C(=O)/C(=C/C=C/c2ccco2)SC1=S (centres undefined) , system SUMO-activating enzyme (Homo sapiens, UniProt Q9UBT2): what IC50 was measured?
Result block: 1.12 µM (active)

###

# Test Protocol: NIH3T3 cell viability loss – ATP luminescence, mouse fibroblasts, counter-screen, dose response (AID 2010);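 further: cells exposed to compound for about 90 hours before reading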
# Format: functional, cell-based
Test Readout: EC50

>  <Compound>
COc1ccc(NC(=O)c2c(OC)cccc2OC)c(OC)c1

>  <Test Readout>
EC50

>  <Measured Result>
> 60 µM (not active)

$$$$
>  <Compound>
COc1ccc(C(=O)C2CCCN(Cc3cnc(N4CCCC4)s3)C2)cc1OC (centres undefined)

>  <Test Readout>
EC50

>  <Measured Result>
> 30 µM (not active)

$$$$

Query block: Quick one: EC50 of CC(C)NC(=O)c1sc2nc3c(c(-c4cccs4)c2c1N)CN(C)CC3 ?
Result block: > 60 µM (inconclusive)

Query block: Dear colleague, I am looking for the recorded EC50 of the following compound: Cl.OCCN1CCN(CCOc2cccc(Cl)c2)CC1
Result block: > 60 µM (inconclusive)

###

# Tested on: P388/ADR
# Test Protocol: cells
# Assay type: functional
# Recorded Conditions: Mus musculus
Active and inactive are the calls of the source.
Answer with one of the outcomes Y (active), N (inactive)

A selection of reference data follows.
>  <Molecule>
CC[C@]12C=CCN3CC[C@@]4(c5ccc(OC)cc5N(C)[C@H]4[C@@](O)(C(=O)OC)[C@@H]1OC(C)=O)[C@@H]32

>  <Label Class>
N

$$$$
>  <Molecule>
CCNC(=O)C(C)C1CCC2(C)C=CC(=O)C(C)=C2C1O (centres undefined)

>  <Label Class>
N

$$$$
>  <Molecule>
C/C(=N\NC(=[Se])N(C)C)c1ccccn1

>  <Label Class>
Y

$$$$

Query block: What is the recorded call for this molecule in the test? O=C(NCCCCCCNC(=O)n1cc(F)c(=O)[nH]c1=O)NCCCOCCOCCOCCOCCOCCOCCOCCOCCOCCOCCOCCOCCOCCOCCOCCOCCOCCOCCOCCOCCOCCCNC(=O)C(O)C(O)C(O)C(O)CO (centres undefined)
Result block: Y

###

# System: DNA dC->dU-editing enzyme APOBEC-3G (Homo sapiens)
# Sequence (Q9HC16 whole entry): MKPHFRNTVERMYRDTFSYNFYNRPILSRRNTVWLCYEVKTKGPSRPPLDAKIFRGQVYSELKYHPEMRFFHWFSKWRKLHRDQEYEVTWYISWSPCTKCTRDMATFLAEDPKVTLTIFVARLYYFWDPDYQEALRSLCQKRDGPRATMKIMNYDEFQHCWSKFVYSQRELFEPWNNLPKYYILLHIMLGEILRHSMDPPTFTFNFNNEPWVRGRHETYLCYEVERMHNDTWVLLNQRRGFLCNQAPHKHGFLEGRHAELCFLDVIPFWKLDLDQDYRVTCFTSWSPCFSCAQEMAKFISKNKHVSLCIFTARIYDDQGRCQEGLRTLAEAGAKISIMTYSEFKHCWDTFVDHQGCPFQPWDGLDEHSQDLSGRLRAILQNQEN
# Assay type: functional
Active and inactive are the calls of the source.
IC50 listing for selected compounds.

Consider the following illustrative entries.
>  <Compound>
CCOC(=O)c1ccc2c(c1)N(CC)C(=O)c1ccccc1S2

>  <System>
DNA dC->dU-editing enzyme APOBEC-3G (Homo sapiens)

>  <IC50>
4.15 µM (active)

$$$$
>  <Compound>
CCOc1ccccc1OCC(=O)Nc1cc(S(=O)(=O)N2CCCCC2)ccc1N1CCN(CC)CC1

>  <System>
DNA dC->dU-editing enzyme APOBEC-3G (Homo sapiens)

>  <IC50>
6.44 µM (active)

$$$$
>  <Compound>
CN(CC(=O)Nc1c(Cl)cccc1Cl)C(=O)c1cccc(-n2cccc2)c1

>  <System>
DNA dC->dU-editing enzyme APOBEC-3G (Homo sapiens)

>  <IC50>
34.6 µM (active)

$$$$
>  <Compound>
CCCCn1nc(NC(=O)COC)c2cc3ccc(C)cc3nc21

>  <System>
DNA dC->dU-editing enzyme APOBEC-3G (Homo sapiens)

>  <IC50>
5 µM (active)

$$$$
>  <Compound>
Cc1ccc(C)c(OCCC(=O)OCC(=O)N2c3ccccc3NC(=O)C2(C)C)c1

>  <System>
DNA dC->dU-editing enzyme APOBEC-3G (Homo sapiens);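 further: Dose-response counterscreen measuring inhibition of APOBEC3G DNA deaminase activity, run while confirming APOBEC3A inhibitors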

>  <IC50>
10.4 µM (active)

$$$$

Query block: Please report the recorded IC50 for O=C(Nc1nc2c(s1)CCCC2)C1CCCN1C(=O)c1cccs1 (stereo unspecified) .
Result block: 15.8 µM (active)

###

# System: Zinc finger protein mex-5 (Caenorhabditis elegans)
# Sequence (Q9XUB2 whole entry): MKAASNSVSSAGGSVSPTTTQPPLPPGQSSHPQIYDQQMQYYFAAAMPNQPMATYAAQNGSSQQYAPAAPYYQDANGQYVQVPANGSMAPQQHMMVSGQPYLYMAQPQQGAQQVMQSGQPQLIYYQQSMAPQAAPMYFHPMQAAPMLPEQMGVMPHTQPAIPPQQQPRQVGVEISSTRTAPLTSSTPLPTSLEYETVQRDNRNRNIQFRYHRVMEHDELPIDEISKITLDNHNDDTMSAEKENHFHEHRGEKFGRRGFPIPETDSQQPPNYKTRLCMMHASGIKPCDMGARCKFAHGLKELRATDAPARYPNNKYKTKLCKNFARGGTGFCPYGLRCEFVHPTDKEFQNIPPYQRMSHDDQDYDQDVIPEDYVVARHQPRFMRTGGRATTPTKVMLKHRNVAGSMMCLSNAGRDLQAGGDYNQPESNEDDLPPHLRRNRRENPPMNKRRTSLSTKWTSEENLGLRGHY
# Test Protocol: potency of MEX-5 RNA-binding blockers – biochemical, C. elegans, fluorescence polarization, dose response (AID 1960)
Active and inactive are the calls of the source.
# maps each entry to its EC50

Answered cases to consult:
>  <Compound>
COC(=O)c1ccc(COc2ccc(/C=C(\C#N)c3nc4ccccc4[nH]3)cc2OC)o1

>  <EC50>
> 300 µM (not active)

$$$$
>  <Compound>
CC(=O)N1CCc2c(sc(NC(=O)C3CCCCC3)c2C(N)=O)C1

>  <EC50>
30.1 µM (active)

$$$$
>  <Compound>
COc1ccc(-n2c(NNC(C)=O)nc3sc4c(c3c2=O)CCCC4)cc1

>  <EC50>
> 300 µM (not active)

$$$$
>  <Compound>
Cc1cc(C)nc(NNC2=CC(=O)CC(C)(C)C2)n1

>  <EC50>
10.9 µM (active)

$$$$
>  <Compound>
COC(=O)c1ccccc1-n1cccc1C(=O)NP(=O)(N1CCOCC1)N1CCOCC1

>  <EC50>
> 300 µM (not active)

$$$$
>  <Compound>
NC1=C(c2nc3ccccc3[nH]2)C(=O)CN1c1ccc(CC(=O)O)cc1

>  <EC50>
1.59 µM (active)

$$$$
>  <Compound>
Cc1c(O)ccc(-c2n[nH]c(C(=O)O)c2-c2nc3ccccc3s2)c1O

>  <EC50>
14 µM (inconclusive)

$$$$
>  <Compound>
CCCn1cc2c3c(cccc31)C1CC(C)CN(C)C1C2 (stereo not given)

>  <EC50>
29.6 µM (active)

$$$$

Query block: Please report the recorded EC50 for O=C(O)C(=O)/C(=C\c1ccc(Cl)cc1)c1ccc2ccccc2n1 .
Result block: > 300 µM (not active)

Query block: EC50 lookup needed for CCOc1cccc(N2C(=O)/C(=C/c3ccco3)C(=O)NC2=S)c1 , thanks.
Result block: > 300 µM (not active)
